# Test system: HOP-92
# experiment summary: NCI tumour cell line growth inhibition, 48 h
Activity calls are given as the source filed them. Rule as the data show it: active = GI50 up to about 1.1 µM and inactive = higher.
quantity kind: GI50

> print(dat)
                                   compound          data.value
1  O=C(Nc1c(Cl)cc([N+](=O)[O-])cc1Cl)C(=O)C(C1OC(=O)c2ccccc21)[N+](=O)[O-] (stereo not given)  15.1 µM (inactive)
2  CCOC(=O)Cn1c2ccccc2c(=O)c2cc(C)c(C)c(C#N)c21  21.8 µM (inactive)
3         O=[N+]([O-])c1cc2[nH]nnc2c2nonc12  36.5 µM (inactive)
4  CC1NC(=O)CC(c2ccccc2)N(N=O)C1c1ccccc1 (stereo not given)  16.9 µM (inactive)
5  CC(C)NC(=O)OCc1c(COC(=O)NC(C)C)n(C)c2c1ccc1sccc12   4.9 µM (inactive)

###

# Test system: K562
# experiment summary: NCI tumour cell line growth inhibition, 48 h
Calls of active or inactive are those of the source. No stated cut-off is given here; in the data, active = GI50 up to about 1.1 µM and inactive = higher. Peptide text beside a SMILES is read from it. * marks the point of attachment. Trt = c1ccc(C(c2ccccc2)(c2ccccc2)*)cc1; Cbz = O=C(OCc1ccccc1)*
Labels: class 1 for active, class 0 for inactive

compound	cat
COC(=O)CCCC(=O)C1=NN(c2ccc(Cl)cc2)Cc2ccccc2N1	class 0
Clc1cc(Cl)c2c(Cl)cc(Cl)c3c2c1N=S=N3	class 0
Cc1ccc(S(=O)(=O)NCC2CCCCC2=O)cc1 (stereo not drawn)	class 0
Cc1cc2c(cc1C)[n+]([O-])c(C(=O)C/C(=N/NC(=O)c1ccccc1O)C(=O)Nc1ccccc1C(C)C)c(C)[n+]2[O-]	class 0
CN(Cc1cccc2ccccc12)Cc1cccc2ccccc12	class 0
CCCCCCCCCCCCCCCCCCNc1ccn(C2OC(COP(=O)(O)OCCCCCCCCCCCCCCCC)C(O)C2O)c(=O)n1 (stereo not drawn)	class 0
Cc1ccc(Nc2cccc3c2C(=O)c2cccc(Nc4ccc(C)cc4S(=O)(=O)O)c2C3=O)c(S(=O)(=O)O)c1	class 0
NC(CNc1ccc(O)cc1)C(=O)O (stereo not drawn)	class 0
Cc1ccc(NC=O)c(-c2c(N)[nH]c(=S)[nH]c2=O)c1	class 0
Cc1ccc(C(=O)CC2(O)C(=O)Nc3c(C)cc(Cl)cc32)cc1 (stereo not drawn)	class 0
N[C@@H]1c2c(Br)sc(Br)c2[C@H](O)[C@@H]1O	class 0
CN(C)c1cccc2c1C(=O)C=CC21c2ccc(N(C)C)c3c(N(C)C)ccc(c23)C(c2ccccc2)C1c1ccccc1 (stereo not drawn)	class 0
CC(C)C[P+](c1ccccc1)(c1ccccc1)c1ccccc1	class 0
CCOC(=O)N(C)C(=C(F)F)C(F)(F)F	class 0
CN(/N=C/c1ccc(OCc2cccc(COc3ccc(C=O)cc3)n2)cc1)c1cnn(-c2ccc(Cl)cc2Cl)c(=O)c1Cl	class 0
COc1ccc(/C=N/n2cnc3c(c2=O)S/C(=C2/SC(=S)N(c4ccc(C)cc4)C2=O)N3c2ccccc2)cc1	class 0
CN(C)CCNc1c2ccccc2c2c3c(cccc13)C(=O)N(CCN(C)C)C2=O	class 1
O=C(c1ccccc1)c1c(C(F)(F)F)[n+]([O-])c2cc(Cl)c(Cl)cc2[n+]1[O-]	class 0
COc1ccc(OC(C(=O)O)C(C)C)c2c1CCCC2=O (stereo not drawn)	class 0
CC(=O)C1(C)CC(C#N)(C#N)C(C#N)=C1N (stereo not drawn)	class 0
COC(=O)C1C(=O)N(C)C(=O)N2CCCC12 (stereo not drawn)	class 0
COC(=O)C(CO)NC(=O)C(CSC(c1ccccc1)(c1ccccc1)c1ccccc1)NC(=O)OCc1ccccc1 (stereo not drawn) (Cbz-Cys(Trt)-Ser-OMe; configuration not given here)	class 0
CC1=C(C(=O)N(C(C)C)C(C)C)CC(C(=O)N(C(C)C)C(C)C)=C(C)N1	class 0
COC(=O)c1ccc2c(c1)CC1(C2)Cc2ccc3c(c2C1)CCC3 (stereo not drawn)	class 0
CC1=C[C@@H]2Cc3nc4cc(Cl)ccc4c(N)c3[C@H](C1)C2	class 0
CN(C)c1nc(N(C)C)nc(N(C)CN(C)c2ccc(Cl)cc2)n1	class 0
CC(=O)Oc1ccc(N2C(=O)C3c4[nH]c5ccccc5c4C4CCC(C(C)(C)C)CC4C3C2=O)cc1 (stereo not drawn)	class 0
CCOc1ccc(C(=O)/C=C2/Nc3ccccc3N/C2=C/C(=O)c2ccc(OCC)cc2)cc1	class 0
O=C1CCCc2cc3c(cc21)CC1(Cc2ccccc2C1)C3	class 0
Nc1nc(N)c(C2=CCNCC2)c(=O)[nH]1	class 0
O=C1Nc2c(Cl)cc(Cl)cc2/C1=N/NC(=O)c1ccncc1	class 0
Cc1cc(C)nc(NC(=S)Nc2ccc(Cl)cc2)c1	class 0
CCc1cc2c(O)c(c1)Cc1cc(CC)cc(c1O)Cc1cc(CC)cc(c1O)Cc1cc(CC)cc(c1O)Cc1cc(CC)cc(c1O)Cc1cc(CC)cc(c1O)Cc1cc(CC)cc(c1O)C2	class 0
